# measurement.target: Human α4β2 (Homo sapiens, UniProt P17787+P43681)
# Sequence (P43681 29-627 limits assumed): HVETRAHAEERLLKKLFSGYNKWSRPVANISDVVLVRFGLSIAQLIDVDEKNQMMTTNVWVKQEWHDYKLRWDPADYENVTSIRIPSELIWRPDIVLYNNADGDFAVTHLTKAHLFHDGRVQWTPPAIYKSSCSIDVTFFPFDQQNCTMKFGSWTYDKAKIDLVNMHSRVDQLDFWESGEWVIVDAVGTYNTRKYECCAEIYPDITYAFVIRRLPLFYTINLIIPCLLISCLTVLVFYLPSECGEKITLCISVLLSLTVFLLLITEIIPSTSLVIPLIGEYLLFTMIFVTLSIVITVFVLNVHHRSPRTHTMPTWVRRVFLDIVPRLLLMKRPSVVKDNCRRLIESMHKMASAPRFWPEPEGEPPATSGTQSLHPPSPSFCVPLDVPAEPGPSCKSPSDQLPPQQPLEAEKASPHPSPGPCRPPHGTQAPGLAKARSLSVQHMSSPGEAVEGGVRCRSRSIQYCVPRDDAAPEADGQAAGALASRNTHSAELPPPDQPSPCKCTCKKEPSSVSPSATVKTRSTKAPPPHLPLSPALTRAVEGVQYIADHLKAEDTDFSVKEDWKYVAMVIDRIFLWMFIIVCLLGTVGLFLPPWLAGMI
# Sequence (P17787 26-502): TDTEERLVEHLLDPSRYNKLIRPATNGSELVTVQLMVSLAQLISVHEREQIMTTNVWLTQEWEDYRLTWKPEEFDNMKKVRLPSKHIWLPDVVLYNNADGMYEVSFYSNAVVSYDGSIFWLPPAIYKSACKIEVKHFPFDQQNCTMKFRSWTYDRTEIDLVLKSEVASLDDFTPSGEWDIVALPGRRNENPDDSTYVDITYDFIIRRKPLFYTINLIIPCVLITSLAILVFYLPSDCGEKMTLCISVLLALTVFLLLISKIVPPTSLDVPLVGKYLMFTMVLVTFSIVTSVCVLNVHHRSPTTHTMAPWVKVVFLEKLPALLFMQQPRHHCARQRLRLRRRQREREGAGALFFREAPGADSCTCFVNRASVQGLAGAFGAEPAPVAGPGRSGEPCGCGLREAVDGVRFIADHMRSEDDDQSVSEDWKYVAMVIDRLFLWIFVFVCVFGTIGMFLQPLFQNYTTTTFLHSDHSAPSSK
# test.description: Binding at human α4β2 subtype (Table 1)
# applied.conditions: read-out: Human α4β2 Ki
pKi: −log10 of the molar value.
Quick list: pKi per entry.
assay.endpoint: pKi

• Cc1nocc1C(=O)N1CC2CCNCC2C1 (stereo not shown) = 6.05
• O=C(c1ccncc1)N1CC2CNC(C2)C1 (stereo not shown) = 7.53
• Cc1coc(C(=O)N2C[C@@H]3CN[C@@H](C3)C2)c1 = 7.29
• O=C(c1ccc(F)o1)N1C[C@H]2CN[C@H](C2)C1 = 8.16
• O=C(c1cnco1)N1C[C@H]2CN[C@H](C2)C1 = 7.85
• O=C(c1ccco1)N1CC2CNCC1C2 (stereo not shown) = 6.66
• O=C(c1cc(Cl)co1)N1C[C@@H]2CN[C@@H](C2)C1 = 7.38
• O=C(c1ccco1)N1CCC2CNCC21 (stereo not shown) = 6.07
• Cc1ncoc1C(=O)N1CCC2NCC2C1 (stereo not shown) = 6.10
• Cc1ncoc1C(=O)N1C[C@H]2CN[C@H](C2)C1 = 8.34
• Cc1nocc1C(=O)N1CC2CCNC2C1 (stereo not shown) = 6.19
• O=C(c1cnco1)N1C[C@@H]2CN[C@@H](C2)C1 = 7.07
• O=C(c1ccncc1)N1CC2CNCC1C2 (stereo not shown) = 6.88
